System: DMS-273
Experiment: NCI tumour cell line growth inhibition, 48 h
Activity calls are given as the source filed them. Rule as the data show it: active = GI50 up to about 1.1 µM and inactive = higher.
Hello, when you answer, please use one of the following outcomes: active, inactive

Tell me the recorded outcome of this test for CCC(C)SC1SCC2C(=O)N(C)C3(CC3C)C(=O)OCC(NC(=O)c3nc4ccccc4cc3O)C(=O)NC(C)C(=O)N(C)C1C(=O)N(C)C1(CC1C)C(=O)OCC(NC(=O)c1nc3ccccc3cc1O)C(=O)NC(C)C(=O)N2C (stereo not drawn) .
active

Tell me the recorded outcome of this test for `CCN(CC)c1ccc2c(c1)N=C1N=CC=CN1C2(c1ccc(N(C)C)cc1)c1ccc(N(C)C)cc1` .
inactive

Tell me the recorded outcome of this test for `CCOc1ccc(/C=C\c2cc(OC)c(OC)c(OC)c2)cc1` .
active

Tell me the recorded outcome of this test for CC(=O)O[C@H]1C(=O)[C@@]2(C)C(C(OC(=O)c3ccccc3)[C@]3(O)CC(OC(=O)C(O)C(NC(=O)c4ccc(C(F)(F)F)cc4)c4ccccc4)C(C)=C1C3(C)C)[C@]1(OC(C)=O)CO[C@@H]1C[C@@H]2O (stereo partly drawn) .
active

Tell me the recorded outcome of this test for `Nc1c(C(=O)NC23CC4CC(CC(C4)C2)C3)[n+]([O-])c2ccccc2[n+]1[O-]` .
inactive

Tell me the recorded outcome of this test for `COc1c(NC(C)=O)cc(C)cc1NC(C)=O` .
inactive

Tell me the recorded outcome of this test for COC(=O)/C=C1/CCC2[C@@H](C(=O)CC3[C@]2(C)CCC[C@@]3(C)C(=O)OC)C1C (stereo partly drawn) .
inactive

Tell me the recorded outcome of this test for `O=c1[nH]c(C2CCCCC2)nc2cc(Cl)ccc12` .
inactive
